# TEST DETAILS: antimalarial activity against Dd2 strain (AID 2302)
# CONDITIONS: P. falciparum Dd2 in RBCs, LDH growth readout, 72 h; at 2 µM; active compounds read high
Assign class by growth inhibition: not lower than 90% means fulfilled; lower than 90% means not fulfilled.

Textbook exercise: given the entry CN(C)CCN(C)Cc1nc(-c2ccc3c(Nc4ccc(Oc5ccccc5)cc4)ccnc3c2)cs1 , state whether its growth inhibition is greater than or equal to 90%.
fulfilled

Textbook exercise: given the entry CN(C)Cc1c(O)ccc2oc(Cc3ccccc3)cc12 , state whether its growth inhibition is greater than or equal to 90%.
fulfilled

Determine whether measured growth inhibition meets or exceeds 90% for CCNc1cc(C(=O)N[C@@H](Cc2ccccc2)[C@H](O)CNCc2cc(OC)cc(OC)c2)cc(N2CCCS2(=O)=O)c1
not fulfilled

Tell me whether growth inhibition is at least 90% here: Fc1ccc2nc(-c3ccc(-c4cccc(CN5CCC(CCN6CCCCC6)CC5)c4)cc3)[nH]c2c1
fulfilled

Could you tell me if the measured growth inhibition of CC(C)(C)NCCN(Cc1ccc(-c2ccc(C(F)(F)F)cc2)cc1)C(=O)Cn1c(SCc2ccc(F)cc2)nc(=O)c2c1CCC2 reaches 90% or more?
not fulfilled
